Attribution: patent EP0497091A1

Target: squalene synthase (Rattus norvegicus, UniProt Q02769)
Construct: from tissue; host or cells: rat liver homogenate
Sequence (Q02769 whole entry): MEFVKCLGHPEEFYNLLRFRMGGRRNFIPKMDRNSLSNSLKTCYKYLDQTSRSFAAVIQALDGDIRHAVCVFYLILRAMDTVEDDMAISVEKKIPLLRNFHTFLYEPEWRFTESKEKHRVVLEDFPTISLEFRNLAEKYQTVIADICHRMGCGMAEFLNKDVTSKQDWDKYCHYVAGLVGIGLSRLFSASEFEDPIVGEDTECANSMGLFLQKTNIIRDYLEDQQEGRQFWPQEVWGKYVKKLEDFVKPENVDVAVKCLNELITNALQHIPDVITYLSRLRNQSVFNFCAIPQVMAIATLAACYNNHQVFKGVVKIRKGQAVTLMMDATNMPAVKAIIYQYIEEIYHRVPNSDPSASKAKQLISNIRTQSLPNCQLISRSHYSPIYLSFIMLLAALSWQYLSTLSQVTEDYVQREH
Assay: Inhibition of squalene synthase ([14C]squalene production from [2-14C]farnesylpyrophosphate)
Format: biochemical
VALUE KIND: IC50

Worked examples follow.
>>> value_measured("C=C(CC[C@]12O[C@H](C(=O)O)[C@@](O)(C(=O)O)[C@](C(=O)O)(O1)[C@H](OC(=O)/C=C/[C@@H](C)C[C@@H](C)CC)[C@H]2O)C(=O)[C@H](C)Cc1ccccc1 [Example 3]")
"< 100 nM"
>>> value_measured("C=C(CCC12OC(C(=O)O)C(O)(C(=O)O)C(C(=O)O)(O1)C(OC(C)=O)C2O)C(OC(C)=O)C(C)Cc1ccccc1 (stereo not shown) [Compound 1 in Example 28]")
"< 100 nM"
>>> value_measured("C=C(CC[C@]12O[C@H](C(=O)O)[C@@](O)(C(=O)O)[C@](C(=O)O)(O1)[C@H](OC(=O)CCCCCCc1ccccc1)[C@H]2O)[C@@H](OC(C)=O)[C@H](C)Cc1ccccc1 (relative stereo) [Example 39]")
"< 100 nM"

Then this molecule:
Sample C=C(CC[C@]12O[C@H](C(=O)O)[C@@](O)(C(=O)O)[C@](C(=O)O)(O1)[C@H](OC(=O)OCCCCCCCCC)[C@H]2O)[C@@H](OC(C)=O)[C@H](C)Cc1ccccc1 (relative stereo) [Example 57] ; IC50 observed: < 100 nM

---

Molecular target: squalene synthase (Rattus norvegicus)
Construct: from tissue; host or cells: rat liver homogenate
Experiment: Inhibition of squalene synthase ([14C]squalene production from [2-14C]farnesylpyrophosphate)
Format: biochemical
Protocol: A. Biller et al. in J. […] [¹⁴C]squalene is separated from unreacted substrate on thin layer chromatography plates and determined by liquid scintillation counting. […] Squalene was separated from unreacted substrate on thin layer chromatography plates and determined by liquid scintillation counting. Inhibition of squalene synthase was quantified by incubating rat liver homogenate with various concentrations of the test compound in the presence of [2-¹⁴C] farnesylpyrophosphate. […]
pIC50: −log10 of the molar value.
VALUE KIND: pIC50

>>> value_measured("CC[C@H](C)C[C@H](C)/C=C/C(=O)O[C@@H]1[C@@H](O)[C@@]2(C/C=C(\\C)[C@@H](O)[C@H](C)Cc3ccccc3)O[C@H](C(=O)O)[C@@](O)(C(=O)O)[C@]1(C(=O)O)O2 (relative stereo) [Example 5]")
"> 7.00"

Lab note: next compound to report on.
Briefly, pIC50 measured for CC[C@H](C)C[C@H](C)CCC(=O)O[C@@H]1[C@@H](O)[C@@]2(C/C=C(\C)[C@@H](OC(C)=O)[C@H](C)Cc3ccccc3)O[C@H](C(=O)O)[C@@](O)(C(=O)O)[C@]1(C(=O)O)O2 (relative stereo) [Example 11] : > 7.00

---

Biological target: squalene synthase (Rattus norvegicus)
Construct: from tissue; host or cells: rat liver homogenate
Test: Inhibition of squalene synthase ([14C]squalene production from [2-14C]farnesylpyrophosphate)
Type: biochemical
pIC50: −log10 of the molar value.
VALUE KIND: pIC50

>>> value_measured("CCC(C)CC(C)CCC(=O)OC1C(O)C2(CCCC(=O)C(C)Cc3ccccc3)OC(C(=O)O)C(O)(C(=O)O)C1(C(=O)O)O2 (centres unmarked) [Example 20]")
"> 7.00"
>>> value_measured("C=C(CC[C@]12O[C@H](C(=O)O)[C@@](O)(C(=O)O)[C@](C(=O)O)(O1)[C@H](OC(=O)CCCCCCC)[C@H]2O)[C@@H](OC(C)=O)[C@H](C)Cc1ccccc1 (relative stereo) [Example 31]")
"> 7.00"
>>> value_measured("C=C(CC[C@]12O[C@H](C(=O)O)[C@@](O)(C(=O)O)[C@](C(=O)O)(O1)[C@H](OC(=O)CCCC1CCCCC1)[C@H]2O)[C@@H](OC(C)=O)[C@H](C)Cc1ccccc1 (relative stereo) [Example 41]")
"> 7.00"
>>> value_measured("CCC(C)CC(C)CCC(=O)OC1C(O)C2(CCC(C)C(=O)CCc3ccccc3)OC(C(=O)O)C(O)(C(=O)O)C1(C(=O)O)O2 (centres unmarked) [Example 21]")
"> 7.00"

Memo: CC[C@H](C)C[C@H](C)CCC(=O)O[C@@H]1[C@@H](O)[C@@]2(C/C=C(\C)[C@@H](O)[C@H](C)Cc3ccccc3)O[C@H](C(=O)O)[C@@](O)(C(=O)O)[C@]1(C(=O)O)O2 (relative stereo) [Example 14] , reported pIC50: > 7.00
